Target: M4 (Homo sapiens, UniProt P08173)
Sequence (P08173 1-479): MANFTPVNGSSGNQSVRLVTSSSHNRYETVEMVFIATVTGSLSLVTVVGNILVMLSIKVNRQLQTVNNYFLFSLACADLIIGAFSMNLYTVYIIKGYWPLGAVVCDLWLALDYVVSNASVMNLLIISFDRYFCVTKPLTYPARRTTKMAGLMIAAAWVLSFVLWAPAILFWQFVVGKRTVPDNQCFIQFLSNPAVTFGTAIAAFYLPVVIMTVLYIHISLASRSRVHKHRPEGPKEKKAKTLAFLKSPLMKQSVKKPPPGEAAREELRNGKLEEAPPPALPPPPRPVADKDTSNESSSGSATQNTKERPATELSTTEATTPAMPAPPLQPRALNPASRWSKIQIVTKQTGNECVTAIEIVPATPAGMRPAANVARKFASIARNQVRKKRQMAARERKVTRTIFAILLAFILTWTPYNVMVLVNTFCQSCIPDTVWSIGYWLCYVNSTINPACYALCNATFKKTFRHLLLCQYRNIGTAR
Assay: M4 functional activation
Format: cell-based
Conditions: read-out: M4 EC50
readout_label: EC50 (nM)
Your answer is read as nM, so omit the unit and give the number.

Requested read-out: EC50. Entry: CCOC(=O)N1CCC(N2CCC(n3c(=O)[nH]c4ccccc43)CC2)CC1 [ethyl carbamate congener]
9.1

---

Target: M3 (Homo sapiens, UniProt P20309)
Sequence (P20309 whole entry): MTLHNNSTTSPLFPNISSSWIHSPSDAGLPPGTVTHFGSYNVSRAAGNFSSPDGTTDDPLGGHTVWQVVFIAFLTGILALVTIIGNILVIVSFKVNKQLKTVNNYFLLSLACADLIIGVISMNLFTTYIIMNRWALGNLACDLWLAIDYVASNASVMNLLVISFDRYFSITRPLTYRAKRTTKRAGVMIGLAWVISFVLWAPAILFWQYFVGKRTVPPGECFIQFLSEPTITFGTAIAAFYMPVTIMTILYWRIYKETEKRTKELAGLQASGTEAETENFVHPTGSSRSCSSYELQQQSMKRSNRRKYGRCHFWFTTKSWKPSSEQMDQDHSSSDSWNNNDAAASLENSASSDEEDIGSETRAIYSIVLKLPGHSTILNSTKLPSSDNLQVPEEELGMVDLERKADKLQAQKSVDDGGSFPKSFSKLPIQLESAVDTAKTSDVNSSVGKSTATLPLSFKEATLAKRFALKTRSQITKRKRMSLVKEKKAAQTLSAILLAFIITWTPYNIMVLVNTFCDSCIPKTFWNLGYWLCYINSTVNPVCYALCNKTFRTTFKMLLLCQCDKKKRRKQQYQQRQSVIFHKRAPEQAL
Assay: M3 functional activation
Assay type: cell-based
readout_label: EC50

Request body: readout EC50, system M3 (Homo sapiens, UniProt P20309), query `O=c1[nH]c2ccccc2n1C1CCN(C2CCN(S(=O)(=O)c3ccccc3)CC2)CC1` . Return the value.
> 30 µM

---

Biological target: M5 (Homo sapiens)
Sequence (P08912 1-532): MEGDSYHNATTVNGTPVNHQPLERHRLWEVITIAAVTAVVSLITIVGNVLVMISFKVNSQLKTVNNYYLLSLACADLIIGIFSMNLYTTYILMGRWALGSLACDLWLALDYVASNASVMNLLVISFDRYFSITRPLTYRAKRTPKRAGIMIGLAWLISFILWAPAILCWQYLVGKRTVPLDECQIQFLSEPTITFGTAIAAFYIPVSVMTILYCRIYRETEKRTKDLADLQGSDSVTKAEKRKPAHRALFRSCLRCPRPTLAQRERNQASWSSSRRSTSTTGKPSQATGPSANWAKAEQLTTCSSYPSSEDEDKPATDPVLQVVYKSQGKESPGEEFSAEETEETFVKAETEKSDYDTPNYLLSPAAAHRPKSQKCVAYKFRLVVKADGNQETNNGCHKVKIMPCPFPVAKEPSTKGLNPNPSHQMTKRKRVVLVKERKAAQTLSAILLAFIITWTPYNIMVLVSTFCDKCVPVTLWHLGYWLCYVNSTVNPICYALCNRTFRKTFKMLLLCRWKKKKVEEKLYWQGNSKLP
Test: M5 functional activation
Format: cell-based
Details: read-out: M5 EC50
readout_label: pEC50
As a rule, pEC50 stands for the negative log10 of the concentration, concentration in M.

I have this compound here, CCOC(=O)N1CCC(N2CCC(n3c(=O)[nH]c4ccccc43)CC2)CC1 [ethyl carbamate congener] , and I need its recorded pEC50.
7.46

---

Biological target: M2 (Homo sapiens, UniProt P08172)
Sequence (P08172 whole entry): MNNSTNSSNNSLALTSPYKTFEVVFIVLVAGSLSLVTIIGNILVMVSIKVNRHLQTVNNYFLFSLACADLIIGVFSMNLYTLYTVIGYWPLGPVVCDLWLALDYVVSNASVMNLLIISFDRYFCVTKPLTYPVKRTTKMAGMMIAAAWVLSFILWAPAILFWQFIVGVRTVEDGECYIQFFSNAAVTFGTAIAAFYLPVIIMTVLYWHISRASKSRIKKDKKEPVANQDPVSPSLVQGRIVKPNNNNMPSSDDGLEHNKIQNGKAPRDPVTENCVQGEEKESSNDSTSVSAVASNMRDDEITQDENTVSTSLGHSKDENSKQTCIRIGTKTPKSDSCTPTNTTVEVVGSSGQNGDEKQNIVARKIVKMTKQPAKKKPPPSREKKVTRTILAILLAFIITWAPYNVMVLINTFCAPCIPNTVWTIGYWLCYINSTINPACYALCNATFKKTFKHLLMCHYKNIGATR
Experiment: M2 functional activation
Type: cell-based
pEC50: −log10 of the molar value.
readout_label: pEC50

Observed pEC50 on M2 (Homo sapiens, UniProt P08172) for `O=c1[nH]c2ccccc2n1C1CCN(C2CCN(S(=O)(=O)c3ccccc3)CC2)CC1` , please.
< 4.52
